- Measured target: KRAS-G12D (Homo sapiens, UniProt P01116, G12D)
- Construct: endogenous in cells; host or cells: A-427 (ATCC), AGS, AsPc-1, Panc 04.03
- Sequence (P01116 1-188 isoform P01116-2 G12D): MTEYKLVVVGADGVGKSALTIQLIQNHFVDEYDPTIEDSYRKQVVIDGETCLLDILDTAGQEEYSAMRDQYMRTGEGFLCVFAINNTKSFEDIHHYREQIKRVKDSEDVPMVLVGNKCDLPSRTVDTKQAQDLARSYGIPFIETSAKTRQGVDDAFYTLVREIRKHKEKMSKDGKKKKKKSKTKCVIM
- Protocol notes: KRAS-G12D degradation assay (Western Blot), A-427 cells
- Assay type: cell-based
- Test parameters: A427 cells, 24 h; class symbols
- Text: The degradation effects of the compounds on KRAS-G12D were investigated on KRAS G12D mutant human lung cancer cell A-427 (ATCC), KRAS G12D mutant human gastric cancer cell AGS, KRAS G12D mutant human metastatic pancreatic cancer cell AsPc-1, and KRAS G12D mutant human pancreatic adenocarcinoma cell Panc 04.03. […]
Assay readout: DC50

q: Could you please provide reported DC50 for C#Cc1c(F)ccc2cc(O)cc(-c3ncc4c(N5CC6CCC(C5)N6)nc(OCC56CC(CN7CCN(CC8CCC9(CC8)CCN(C(=O)c8ccc(Cl)c(N%10CCC(=O)NC%10=O)c8)CC9)CC7)(C5)C6)nc4c3F)c12 ? Thanks!
a: ≤ 50 nM

q: Check the records and state DC50 for CCc1cccc2cc(O)cc(-c3ncc4c(N5CC6CCC(C5)N6)nc(OCC5(CN6CCN(CC7CCC8(CC7)CCN(C(=O)c7ccc(OC)c(N9CCC(=O)NC9=O)c7)CC8)CC6)CC5)nc4c3F)c12
a: ≤ 50 nM

# evaluate next
q: Return the recorded DC50 value; entry: C#Cc1c(F)ccc2cc(O)cc(-c3ncc4c(N5CC6CCC(C5)N6)nc(OCC5(CN6CCC(COCC7CCN(C(=O)c8ccc(Cl)c(N9CCC(=O)NC9=O)c8)CC7)CC6)CC5)nc4c3F)c12
a: 50 to 100 nM

###

- Measured target: KRAS-G12D (Homo sapiens, UniProt P01116, G12D)
- Construct: endogenous in cells; host or cells: A-427 (ATCC), AGS, AsPc-1, Panc 04.03
- Protocol notes: KRAS-G12D degradation assay (Western Blot), AsPc-1 cells
- Assay type: cell-based
- Test parameters: 24 h
Field: label. Allowed values: 1 (DC50 < 20 nM) or 0 (DC50 >= 20 nM).

q: Please state whether DC50 is below 20 nM for C#Cc1cccc2cc(O)cc(-c3ncc4c(N5CC6CCC(C5)N6)nc(OCC5(CN6CCN(CC7CCC8(CC7)CCN(C(=O)c7ccc(Cl)c(N9CCC(=O)NC9=O)c7)CC8)CC6)CC5)nc4c3F)c12
a: 1

q: Does C#Cc1c(F)ccc2cc(O)cc(-c3ccc4c(N5CC6CCC(C5)N6)nc(OCC(C)CN5CCN(CC6CCC7(CC6)CCN(C(=O)c6ccc(C)c(N8CCC(=O)NC8=O)c6)CC7)CC5)nc4c3F)c12 (centres unmarked) have DC50 strictly under 20 nM?
a: 1

q: Record COc1ccc(C(=O)N2CCC3(CCC(CN4CCN(CC5(COc6nc(N7CC8CCC(C7)N8)c7cnc(-c8cc(O)cc(Cl)c8C8CC8)c(F)c7n6)CC5)CC4)CC3)CC2)cc1N1CCC(=O)NC1=O : is its DC50 strictly below 20 nM?
a: 0

q: Take the compound C#Cc1c(F)ccc2cc(O)cc(-c3ncc4c(N5CC6CCC(C5)N6)nc(OC[C@H](C)CN5CCN(CC6CCC7(CC6)CCN(C(=O)c6ccc(CC)c(N8CCC(=O)NC8=O)c6)CC7)CC5)nc4c3F)c12 and say whether its DC50 is less than 20 nM.
a: 1

Here is another compound to look at.
q: Problem: For the compound C#Cc1c(F)ccc2cc(O)cc(-c3ccc4c(N5CC6CCC(C5)N6)nc(OCC5(CN6CCN(CC7CCC8(CC7)CCN(C(=O)c7ccc(OC)c(N9CCC(=O)NC9=O)c7)CC8)CC6)CC5)nc4c3F)c12 , is DC50 under 20 nM?
a: 1
